Target: UniProt P48048
Sequence (P48048 whole entry): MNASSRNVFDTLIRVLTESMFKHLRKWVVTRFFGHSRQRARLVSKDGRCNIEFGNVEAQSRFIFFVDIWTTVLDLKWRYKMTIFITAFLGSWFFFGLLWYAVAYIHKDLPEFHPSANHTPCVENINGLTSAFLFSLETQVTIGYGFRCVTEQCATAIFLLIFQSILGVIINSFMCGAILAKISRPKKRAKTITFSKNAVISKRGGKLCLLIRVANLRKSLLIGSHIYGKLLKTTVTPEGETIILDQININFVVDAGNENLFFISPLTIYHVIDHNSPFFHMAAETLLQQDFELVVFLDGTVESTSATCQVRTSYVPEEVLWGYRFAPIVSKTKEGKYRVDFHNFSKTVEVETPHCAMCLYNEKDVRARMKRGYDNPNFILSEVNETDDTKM
Test: ROMK electrophysiology assay (IonWorks Quattro whole cell voltage clamp)
Assay type: cell-based
Settings: Chinese hamster ovary cells stably expressing Kir1.1; block during voltage step to 0 mV; 6 min compound incubation; read-out: ROMK Electrophysiology Assay IC50
Readings of pIC50 for the listed molecules
The meaning of pIC50 here: minus log10 of the concentration in molar units.

Notebook: pull reported pIC50 for UniProt P48048, entry Cc1c(CCN2CCN(C(=O)Cc3cc(F)c(C#N)cc3F)CC2)ccc2c1COC2=O
7.03

Reported pIC50 for UniProt P48048, given C[C@H]1Cc2cc(CCN3CCN(C(=O)C4CCc5nc(-n6cnnn6)ccc54)CC3)ccc2C(=O)O1 (single isomer, unassigned) ?
7.00

Request: pIC50, test system UniProt P48048, entry Cc1c(CCN2CCN(C(=O)Cc3ccc(-n4cnnn4)cc3)CC2)ccc(F)c1C#N
7.43
